Test system: CCRIS mutagenicity, Ames/micronucleus/aberration tests
Test: CCRIS mutagenicity studies
Settings: Test System: AMES SALMONELLA TYPHIMURIUM; Strain/Indicator: TA97A; Metabolic Activation: RAT, LIVER, S-9, AROCLOR 1254; Method: STANDARD PLATE
Active and inactive are the calls of the source. The rule behind the calls is not given here.
Give one outcome, nothing more. List: active, inactive

Qu. Please indicate how the test categorized `Cc1c(N)c(=O)n(-c2ccccc2)n1C` .
Ans. active

Qu. Please indicate how the test categorized `O=S(=O)(c1ccc(Cl)cc1)c1cc(Cl)c(Cl)cc1Cl` .
Ans. inactive

Qu. Please indicate how the test categorized `CCCC[C@@H](C)[C@@H](OC(=O)C[C@@H](CC(=O)O)C(=O)O)[C@H](C[C@@H](C)CCCCCC[C@@H](O)C[C@H](O)[C@H](C)N)OC(=O)C[C@@H](CC(=O)O)C(=O)O` .
Ans. inactive

Qu. Please indicate how the test categorized `CC(=O)O[C@H]1CC[C@@]2(C)C(=CC[C@H]3[C@@H]4CC[C@H]([C@H](C)CCCC(C)C)[C@@]4(C)CC[C@@H]32)C1` .
Ans. inactive

Qu. Please indicate how the test categorized `CCCCOCCO` .
Ans. active

---

Test system: CCRIS mutagenicity, Ames/micronucleus/aberration tests
Assay: CCRIS mutagenicity studies
Conditions: Test System: AMES SALMONELLA TYPHIMURIUM; Strain/Indicator: TA1538; Metabolic Activation: RAT, LIVER, S-9, AROCLOR 1254; Method: STANDARD PLATE
Active and inactive are the calls of the source. No rule for the calls is given here.
Give one outcome, nothing more. List: True = active, False = inactive

Qu. Please indicate how the test categorized `Nc1cccc([N+](=O)[O-])c1O` .
Ans. False

Qu. Please indicate how the test categorized `CC(C)C1=CC2=CC[C@@H]3[C@](C)(CCC[C@@]3(C)C(=O)O)[C@H]2CC1` .
Ans. False

Qu. Please indicate how the test categorized `O=c1oc2ccc([N+](=O)[O-])cc2c2ccccc12` .
Ans. True

Qu. Please indicate how the test categorized `O=C(O)C[C@H](NC(=O)COc1cc(Cl)c(Cl)cc1Cl)C(=O)O` .
Ans. False

Qu. Please indicate how the test categorized `CCCOc1cc(N=Nc2ccccc2)ccc1N=Nc1c(S(=O)(=O)O)cc2ccc(N)cc2c1O` .
Ans. True

Qu. Please indicate how the test categorized COc1cc([N+](=O)[O-])ccc1N=NC(C(C)=O)C(=O)Nc1ccccc1OC (centres undefined) .
Ans. False

Qu. Please indicate how the test categorized `Nc1ccc(-c2ccc(N)cc2)cc1` .
Ans. True

Qu. Please indicate how the test categorized `Clc1cc(Cl)c(Cl)cc1Cl` .
Ans. False

Qu. Please indicate how the test categorized CC(O)C(=O)NCCO (centres undefined) .
Ans. True

Qu. Please indicate how the test categorized `Nc1cc(S(=O)(=O)[O-])cc2c1C(=O)/C(=N\Nc1ccc(-c3ccc(N/N=C4\C(=O)c5c(N)cc(S(=O)(=O)[O-])cc5C=C4S(=O)(=O)[O-])c(O)c3)cc1O)C(S(=O)(=O)[O-])=C2.[Cu].[Cu].[Na+].[Na+].[Na+].[Na+]` .
Ans. False

Qu. Please indicate how the test categorized `C#C[C@]1(O)CC[C@H]2[C@@H]3CCC4=C(CCC(=O)C4)[C@H]3CC[C@@]21C` .
Ans. False

Qu. Please indicate how the test categorized `C[C@H]1CCCC(=O)CCC/C=C/c2cc(O)cc(O)c2C(=O)O1` .
Ans. False

Qu. Please indicate how the test categorized `O=NN1CCC[C@H]1c1cccnc1` .
Ans. False

Qu. Please indicate how the test categorized `O=C(O)c1ccccc1C1=c2cc3c4c(c2Oc2c1cc1c5c2CCCN5CCC1)CCC[N+]=4CCC3` .
Ans. False

Qu. Please indicate how the test categorized `COc1cc(CCC(C)=O)ccc1O` .
Ans. False

Qu. Please indicate how the test categorized `NCCNCCNCCNCCN` .
Ans. False

Qu. Please indicate how the test categorized `CNC(=O)Oc1ccccc1OC(C)C` .
Ans. False

Qu. Please indicate how the test categorized `C[n+]1c2ccccc2nc2ccccc21` .
Ans. False

Qu. Please indicate how the test categorized `O=C(O)c1ccccc1Nc1cc(Cl)ccc1C(=O)O` .
Ans. False

Qu. Please indicate how the test categorized `CCN(N=O)c1ccccc1` .
Ans. False

Qu. Please indicate how the test categorized `C1OCOCO1` .
Ans. False

Qu. Please indicate how the test categorized `N#Cc1ccccc1` .
Ans. False

Qu. Please indicate how the test categorized `O=C(CCCN1CCC(O)(c2ccc(Cl)cc2)CC1)c1ccc(F)cc1` .
Ans. False

Qu. Please indicate how the test categorized `COC(=O)Nc1nc2ccc(OS(=O)(=O)c3ccc(F)cc3)cc2[nH]1` .
Ans. False

---

Test system: CCRIS mutagenicity, Ames/micronucleus/aberration tests
Assay: CCRIS mutagenicity studies
Details: Test System: AMES SALMONELLA TYPHIMURIUM; Strain/Indicator: TA1537; Metabolic Activation: NONE; Method: STANDARD PLATE
Active and inactive are the calls of the source. No rule for the calls is given here.
parameter: mutagenic call

Known results for molecules:
COc1cc(N)c(OC)cc1N : inactive; negative
CN(C)CCNC(=O)c1cccc2c1C(=O)c1ccccc1C2=O : active; positive
O=C1c2ccccc2CCc2ccccc21 : inactive; negative
CNc1snc2ccccc12 : inactive; negative
CN(C)CCNC(=O)c1cccc2c1Nc1ccccc1O2 : active; positive

Qu. State its mutagenic call: `CC(=O)C(Cl)Cl`
Ans. inactive; negative

Qu. State its mutagenic call: `Cc1cc(N)c([N+](=O)[O-])c(C)c1N`
Ans. inactive; negative

Qu. State its mutagenic call: `CCN(CCCl)c1ccc(CCCNc2c3ccccc3nc3ccccc23)cc1`
Ans. active; positive

Qu. State its mutagenic call: `O=C(CCc1ccc(O)cc1)c1c(O)cc(O)cc1O`
Ans. inactive; negative

Qu. State its mutagenic call: `Nc1snc2ccc([N+](=O)[O-])cc12`
Ans. active; positive

Qu. State its mutagenic call: `CCCCC/C=C\C/C=C\CCCCCCCC(=O)O`
Ans. inactive; negative

Qu. State its mutagenic call: `CC(=O)Nc1snc2ccccc12`
Ans. active; positive

Qu. State its mutagenic call: `CCCCCNc1snc2ccccc12`
Ans. inactive; negative

Qu. State its mutagenic call: `COC(=O)c1ccc(O)cc1`
Ans. inactive; negative

---

Test system: CCRIS mutagenicity, Ames/micronucleus/aberration tests
Assay: CCRIS mutagenicity studies
Conditions: Test System: AMES SALMONELLA TYPHIMURIUM; Strain/Indicator: TA100; Metabolic Activation: RAT, LIVER, S-9, AROCLOR 1254 (30%); Method: PREINCUBATION
Calls of active or inactive are those of the source. How the calls were made is not given here.
parameter: mutagenic call

Known results for molecules:
c1ccc(Nc2ccc3ccccc3c2)cc1 : inactive; negative
CCC(C)Nc1ccc(NC(C)CC)cc1 (stereo unspecified) : inactive; negative
O=C1CCC(=O)O1 : inactive; negative
CCC(Cl)[N+](=O)[O-] (stereo unspecified) : active; positive
S=P(N1CC1)(N1CC1)N1CC1 : active; positive

Switching to the query record.
Qu. Specify the recorded mutagenic call for `Cc1ccccc1Br` , system: CCRIS mutagenicity, Ames/micronucleus/aberration tests.
Ans. inactive; negative

---

Test system: CCRIS mutagenicity, Ames/micronucleus/aberration tests
Assay: CCRIS mutagenicity studies
Settings: Test System: CHINESE HAMSTER V-79; Strain/Indicator: V-79/OUABAIN; Metabolic Activation: HAMSTER, HEPATOCYTES; Method: CELL-MEDIATED
The source made the active and inactive calls. How the calls were made is not given here.
parameter: mutagenic call

CCCN(CCCO)N=O : inactive; negative
CC(=O)CN(CC(C)=O)N=O : active; positive
CC(O)CN(C)N=O (centres undefined) : active; positive
CCC(O)CN(CC(O)CC)N=O (centres undefined) : inactive; negative

---

Tested on: CCRIS mutagenicity, Ames/micronucleus/aberration tests
Assay: CCRIS mutagenicity studies
Details: Test System: AMES SALMONELLA TYPHIMURIUM; Strain/Indicator: TA100; Metabolic Activation: NONE; Method: STANDARD PLATE
The source made the active and inactive calls. No rule for the calls is given here.
parameter: mutagenic call

O=[N+]([O-])c1ccc2c(c1)c([N+](=O)[O-])cc1ccccc12 : active; positive
CC(=O)Nc1snc2ccccc12 : inactive; negative
CC(=O)ON(OCc1ccc(C)cc1)C(=O)c1ccccc1 : active; positive
OC(CCl)CCl : active; positive
O=[N+]([O-])c1cccc2csnc12 : active; positive
c1ccc2c(c1)C1=c3c-2cc2cccc4ccc(c3c42)C2OC12 (stereo not drawn) : active; positive

Qu. State its mutagenic call: `CCCCCNc1snc2ccccc12`
Ans. inactive; negative

Qu. State its mutagenic call: `Cc1ccc(N=Cc2cccc3cccnc23)c(C(=O)O)c1`
Ans. inactive; negative

Qu. State its mutagenic call: `Nc1ccc(Cl)c(Cl)c1Cl`
Ans. inactive; negative

Qu. State its mutagenic call: `O=CCCCC=O`
Ans. inactive; negative

Qu. State its mutagenic call: `Cc1ccc(S(=O)(=O)OC[C@@H]2CO2)cc1`
Ans. active; positive

Qu. State its mutagenic call: `COc1cc(O)c2c(O)c3c(=O)oc(C)cc3c(OC)c2c1`
Ans. active; positive

Qu. State its mutagenic call: `c1ccc(CNc2ncnc3nc[nH]c23)cc1`
Ans. inactive; negative

Qu. State its mutagenic call: `O=C(OCc1ccccc1)c1cccc2cccnc12`
Ans. inactive; negative

Qu. State its mutagenic call: `S=C1SSC2=NCCN12`
Ans. inactive; negative

Qu. State its mutagenic call: `ClCc1cccc2c1-c1cccc3cccc-2c13`
Ans. active; positive

Qu. State its mutagenic call: `ONc1ccccc1-c1ccccc1`
Ans. active; positive

Qu. State its mutagenic call: `ClCC(Cl)Cl`
Ans. active; positive

Qu. State its mutagenic call: OCC(Cl)CCl (stereo not drawn)
Ans. active; positive

Qu. State its mutagenic call: `CN(C)CCCCl`
Ans. active; positive

Qu. State its mutagenic call: `O=[N+]([O-])c1c2c3c(ccc4cccc(c43)CC2)c2ccccc12`
Ans. inactive; negative

Qu. State its mutagenic call: `O=C(O)c1cc(I)cc2cccnc12`
Ans. inactive; negative

Qu. State its mutagenic call: `O=[N+]([O-])c1c2ccccc2cc2c3c(ccc12)[C@@H](O)[C@H](O)C=C3`
Ans. inactive; negative

Qu. State its mutagenic call: `Nc1ccc(-c2ccc(N)c(Br)c2)cc1Br`
Ans. inactive; negative

Qu. State its mutagenic call: `O=Cc1ccccc1O`
Ans. inactive; negative

Qu. State its mutagenic call: `NCCNCCNCCNCCN`
Ans. inactive; negative

Qu. State its mutagenic call: `Cc1c2ccccc2c(CBr)c2c1ccc1ccccc12`
Ans. active; positive

Qu. State its mutagenic call: `Oc1cccc2cc3cccc(O)c3c(O)c12`
Ans. inactive; negative
